FYI, the data here is from patent US20200002432A1.

target: cynomolgus monkey CD98 ECD (cyCD98 ECD); assay: Biacore surface plasmon resonance binding kinetics, anti-Fc capture; details: framework re-engineered mAbs, Table 24
Sequence (as listed by the source): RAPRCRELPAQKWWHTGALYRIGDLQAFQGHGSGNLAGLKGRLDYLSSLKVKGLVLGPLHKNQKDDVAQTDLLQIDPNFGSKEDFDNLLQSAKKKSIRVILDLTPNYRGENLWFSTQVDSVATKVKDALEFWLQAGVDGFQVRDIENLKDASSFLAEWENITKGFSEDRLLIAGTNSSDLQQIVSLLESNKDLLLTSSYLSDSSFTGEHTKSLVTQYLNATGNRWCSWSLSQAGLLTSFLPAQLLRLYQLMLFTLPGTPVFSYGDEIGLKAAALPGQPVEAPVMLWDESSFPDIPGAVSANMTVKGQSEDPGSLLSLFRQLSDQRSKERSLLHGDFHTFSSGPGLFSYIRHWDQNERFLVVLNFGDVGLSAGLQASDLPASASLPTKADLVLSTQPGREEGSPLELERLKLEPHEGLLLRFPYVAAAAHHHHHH
Define the label as Satisfied when kd, cynoCD98 ECD is strictly less than 0.0003 s⁻¹ and as Not satisfied in all remaining cases.

# input # check: kd, cynoCD98 ECD < 0.0003 s⁻¹ for huAb107: humanized framework engineered anti-CD98 antibody; heavy chain variable SEQ ID NO: 114, light chain variable SEQ ID NO: 112 (antibody, V domains shown) VH: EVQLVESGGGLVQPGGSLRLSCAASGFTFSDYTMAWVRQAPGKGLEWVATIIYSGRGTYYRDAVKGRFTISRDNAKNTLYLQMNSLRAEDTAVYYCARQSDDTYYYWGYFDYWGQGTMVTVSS VL: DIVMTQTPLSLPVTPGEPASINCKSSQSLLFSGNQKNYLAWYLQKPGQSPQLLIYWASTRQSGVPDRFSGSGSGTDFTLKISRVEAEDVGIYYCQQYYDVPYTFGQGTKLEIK
# output Satisfied

# input Dear reviewer, please state whether huAb105: humanized framework engineered anti-CD98 antibody; heavy chain variable SEQ ID NO: 111, light chain variable SEQ ID NO: 112 (antibody, V domains shown) VH: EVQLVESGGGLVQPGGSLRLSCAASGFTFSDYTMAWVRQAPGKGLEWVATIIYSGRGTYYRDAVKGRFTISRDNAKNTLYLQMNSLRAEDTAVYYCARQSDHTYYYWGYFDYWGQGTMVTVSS VL: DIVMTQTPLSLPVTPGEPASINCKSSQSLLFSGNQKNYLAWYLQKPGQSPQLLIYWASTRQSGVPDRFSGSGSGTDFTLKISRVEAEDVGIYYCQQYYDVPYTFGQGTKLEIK has kd, cynoCD98 ECD strictly beneath 0.0003 s⁻¹.
# output Satisfied

# input Quick check: kd, cynoCD98 ECD of huAb101: humanized framework engineered anti-CD98 antibody; heavy chain variable SEQ ID NO: 106, light chain variable SEQ ID NO: 107 (antibody, V domains shown) VH: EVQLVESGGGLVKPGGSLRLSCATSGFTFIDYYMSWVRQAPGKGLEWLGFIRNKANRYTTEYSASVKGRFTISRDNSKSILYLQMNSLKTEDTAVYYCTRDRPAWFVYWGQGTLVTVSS VL: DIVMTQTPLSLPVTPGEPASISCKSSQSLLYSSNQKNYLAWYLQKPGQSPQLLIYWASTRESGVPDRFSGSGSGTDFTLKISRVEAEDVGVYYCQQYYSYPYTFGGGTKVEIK under 0.0003 s⁻¹?
# output Not satisfied

# input Consider huAb103: humanized framework engineered anti-CD98 antibody; heavy chain variable SEQ ID NO: 109, light chain variable SEQ ID NO: 107 (antibody, V domains shown) VH: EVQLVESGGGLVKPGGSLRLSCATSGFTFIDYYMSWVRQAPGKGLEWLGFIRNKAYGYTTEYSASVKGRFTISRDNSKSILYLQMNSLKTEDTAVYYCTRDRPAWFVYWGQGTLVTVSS VL: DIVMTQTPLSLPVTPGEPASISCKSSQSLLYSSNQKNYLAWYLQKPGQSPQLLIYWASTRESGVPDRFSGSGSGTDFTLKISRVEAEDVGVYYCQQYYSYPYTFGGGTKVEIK . Does its kd, cynoCD98 ECD lie strictly below 0.0003 s⁻¹?
# output Not satisfied

# input Confirm or reject: kd, cynoCD98 ECD of huAb109: humanized framework engineered anti-CD98 antibody; heavy chain variable SEQ ID NO: 116, light chain variable SEQ ID NO: 117 (antibody, V domains shown) VH: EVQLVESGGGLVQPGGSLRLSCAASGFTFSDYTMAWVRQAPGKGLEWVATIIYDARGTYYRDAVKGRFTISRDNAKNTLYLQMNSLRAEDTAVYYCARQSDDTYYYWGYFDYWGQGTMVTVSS VL: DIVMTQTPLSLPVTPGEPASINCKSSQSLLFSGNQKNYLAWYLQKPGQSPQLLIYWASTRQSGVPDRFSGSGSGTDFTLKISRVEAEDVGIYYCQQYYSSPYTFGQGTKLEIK lies strictly below 0.0003 s⁻¹
# output Not satisfied
